Please go through the items and note down their IC50.
- Assay System: ALDH1A1 enzyme (Homo sapiens)
- Measurement Protocol: ALDH1A1 enzymatic assay (in vitro)
- Assay type: biochemical
- Test Settings: ALDH1A1 enzyme 20 nM, NAD+ 1 mM, propionaldehyde 80 μM; read-out: ALDH1A1 IC50

INPUT: Lab note: need IC50 with ALDH1A1 enzyme (Homo sapiens) for entry CCOC(=O)N1CCN(C(=O)c2cnc3ccc(F)cc3c2N2CCC3(CC2)OCCO3)CC1 [Example 54] , please look it up.
OUTPUT: < 500 nM

INPUT: And N#CC1(c2ccc(-c3c(C(=O)N4CCC(O)(CO)CC4)cnc4ccc(F)cc34)cc2)CC1 [Cpd. 354] ?
OUTPUT: < 500 nM

INPUT: Then CC1(C#N)CCN(c2c(C(=O)N3CCN(C(=O)C4CC4)CC3)cnc3c(F)c(F)c(F)cc23)CC1 [Example 128] ?
OUTPUT: < 500 nM

INPUT: Here is the next compound: CC1(C#N)CCN(c2c(C(=O)N3CCN(C(=O)C4CC4)CC3)cnc3[nH]ncc23)CC1 [Example 237]
OUTPUT: 1000 to 10000 nM

====

- Assay System: ALDH1A1 enzyme (Homo sapiens, UniProt P00352)
- Measurement Protocol: ALDH1A1 enzymatic assay (in vitro)
- Format: biochemical
- Test Settings: ALDH1A1 enzyme 20 nM, NAD+ 1 mM, propionaldehyde 80 μM; read-out: ALDH1A1 IC50
Measurement Name: IC50

INPUT: What value of IC50 has been reported for the following molecule? "CN(C)S(=O)(=O)N1CCN(C(=O)c2cnc3ccc(Cl)cc3c2-c2ccc(C3(C#N)CC3)cc2)CC1"
OUTPUT: < 500 nM

INPUT: Thanks! And "N#CC1(c2ccccc2F)CCN(c2c(C(=O)N3CCN(C(=O)C4CC4)CC3)cnc3ccc(F)cc23)CC1" ?
OUTPUT: < 500 nM

INPUT: Another molecule to check: "CCS(=O)(=O)N1CCN(C(=O)c2cnc3cc(F)c(F)cc3c2N2CCC3(CC2)OCCO3)CC1"
OUTPUT: < 500 nM

INPUT: Please give the result for "CC1(C#N)CCN(c2c(C(=O)N3CCN(C(=O)N4CCCC4)CC3)cnc3cc(F)c(F)cc23)CC1" too.
OUTPUT: 1000 to 10000 nM

INPUT: Then "CN(C)S(=O)(=O)N1CCN(C(=O)c2cnc3ccc(F)cc3c2-c2ccc(C(C)(C)C#N)cc2)CC1" ?
OUTPUT: < 500 nM

INPUT: What would you report for "CCNC(=O)N1CCN(C(=O)c2cnc3cc(F)c(F)cc3c2N2CCC(C)(C#N)CC2)CC1" ?
OUTPUT: 500 to 1000 nM

INPUT: Now consider "CCN(CC)C(=O)N1CCN(C(=O)c2cnc3c(F)cc(F)cc3c2N2CCC3(CC2)OCCO3)CC1" .
OUTPUT: < 500 nM

====

- Assay System: ALDH1A1 enzyme (Homo sapiens, UniProt P00352)
- Measurement Protocol: ALDH1A1 enzymatic assay (in vitro)
- Assay type: biochemical
- Test Settings: ALDH1A1 enzyme 20 nM, NAD+ 1 mM, propionaldehyde 80 μM; read-out: ALDH1A1 IC50
pIC50: −log10 of the molar value.
Record form. Attribute: pIC50. Fill in for each entry.

INPUT: Item "O=C(c1cnc2ccc(F)cc2c1N1CCC(CO)(c2ccccc2)CC1)N1CCN(C(=O)C2CC2)CC1" with ALDH1A1 enzyme (Homo sapiens, UniProt P00352) - pIC50?
OUTPUT: 5.00 to 6.00

INPUT: // repeat for "CS(=O)(=O)C1CCN(C(=O)c2cnc3ccsc3c2N2CCC(C#N)(c3ccccc3)CC2)CC1" and report
OUTPUT: > 6.30

INPUT: Can you handle "CCC(=O)N1CCN(C(=O)c2cnc3cc(OC)ccc3c2N2CCC(C)(C#N)CC2)CC1" next?
OUTPUT: > 6.30

INPUT: Thanks! And "N#CC1(c2ccc(-c3c(C(=O)N4CCC(O)CC4)cnc4ccc(F)cc34)cc2)CC1" ?
OUTPUT: > 6.30

INPUT: Now the compound "COc1cc2ncc(C(=O)N3CCN(C(=O)C4CC4)CC3)c(N3CCC(C)(C#N)CC3)c2cc1OC"
OUTPUT: > 6.30

INPUT: Entry to check: "CS(=O)(=O)C1CCN(C(=O)c2cnc3ccc(Cl)cc3c2-c2ccc(C3(C#N)CC3)cc2)CC1"
OUTPUT: > 6.30

INPUT: Param item: "CC1(C#N)CCN(c2c(C(=O)N3CCN(C(=O)C4CC4)C(C)(C)C3)cnc3ccc(F)cc23)CC1"
OUTPUT: < 5.00

====

- Assay System: ALDH1A1 enzyme (Homo sapiens)
- Sequence (P00352 1-501): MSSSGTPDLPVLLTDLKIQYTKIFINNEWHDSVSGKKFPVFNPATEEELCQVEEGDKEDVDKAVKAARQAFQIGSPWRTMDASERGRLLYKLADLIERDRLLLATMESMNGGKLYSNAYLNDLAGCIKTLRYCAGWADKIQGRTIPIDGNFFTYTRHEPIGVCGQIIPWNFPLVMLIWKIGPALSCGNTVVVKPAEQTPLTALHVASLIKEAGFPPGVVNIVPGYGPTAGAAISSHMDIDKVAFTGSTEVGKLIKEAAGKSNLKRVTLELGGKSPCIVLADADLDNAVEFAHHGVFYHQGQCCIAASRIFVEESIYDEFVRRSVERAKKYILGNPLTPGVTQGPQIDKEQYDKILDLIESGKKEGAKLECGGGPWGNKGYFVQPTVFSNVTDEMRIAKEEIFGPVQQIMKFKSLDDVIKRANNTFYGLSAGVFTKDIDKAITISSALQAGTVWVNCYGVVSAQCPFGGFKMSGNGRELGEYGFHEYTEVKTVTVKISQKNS
- Measurement Protocol: ALDH1A1 enzymatic assay (in vitro)
- Format: biochemical
- Test Settings: ALDH1A1 enzyme 20 nM, NAD+ 1 mM, propionaldehyde 80 μM; read-out: ALDH1A1 IC50
pIC50: −log10 of the molar value. Where a name gives a salt, the structure may show the parent alone.
Measurement Name: pIC50

INPUT: Using the record for N#CC1(c2ccccc2)CCN(c2c(C(=O)N3CCC(O)(CO)CC3)cnc3ccc(F)cc23)CC1 [Cpd. 351] , report its pIC50.
OUTPUT: > 6.30

INPUT: Ok, now CCNC(=O)N1CCN(C(=O)c2cnc3c(F)c(F)c(F)cc3c2N2CCC(C)(C#N)CC2)CC1 [Example 148]
OUTPUT: 5.00 to 6.00

INPUT: What do you get for O=C(c1cnc2cc(F)c(F)cc2c1N1CCC2(CC1)OCCO2)N1CCN(C(=O)N2CCCC2)CC1 [Example 170] ?
OUTPUT: > 6.30

INPUT: # iterate: COc1ccc2ncc(C(=O)N3CCN(c4ccncc4)CC3)c(N3CCC4(CC3)OCCO4)c2c1 [Example 15, TFA]
OUTPUT: 5.00 to 6.00

INPUT: Consider next the compound C=CC(=O)N1CCN(c2c(C(=O)N3CCN(S(C)(=O)=O)CC3)cnc3ccc(F)cc23)CC1 [Example 220] in the same way.
OUTPUT: 5.00 to 6.00

INPUT: Entry to check: CN(C)C(=O)N1CCN(C(=O)c2cnc3c(F)cc(F)cc3c2N2CCC(C)(C#N)CC2)CC1 [Example 183]
OUTPUT: > 6.30

INPUT: Next record, please: COc1ccc2ncc(C(=O)N3C[C@@H](C)O[C@@H](C)C3)c(N3CCC4(CC3)OCCO4)c2c1 [Example 33]
OUTPUT: 5.00 to 6.00

INPUT: Try this compound too: C[C@H]1CN(C(=O)c2cnc3ccc(F)cc3c2N2CCC(C)(C#N)CC2)CCN1C(=O)C1CC1 [Example 227]
OUTPUT: > 6.30

INPUT: Follow-up item: N#CC1(c2ccc(-c3c(C(=O)N[C@H]4CC[C@H](O)CC4)cnc4ccc(F)cc34)cc2)CC1 [Cpd. 338]
OUTPUT: > 6.30

INPUT: CCC(=O)N1CCN(C(=O)c2cnc3ccc(Cl)cc3c2N2CCC(C)(C#N)CC2)CC1 [Example 118] ?
OUTPUT: > 6.30

INPUT: Then this compound: COc1ccc2ncc(C(=O)N3CCN(C(=O)C4CC4)CC3)c(N3CCS(=O)(=O)CC3)c2c1 [Example 29]
OUTPUT: < 5.00

INPUT: Also, CN(C)C(=O)N1CCN(C(=O)c2cnc3ccsc3c2N2CCC(C#N)(c3ccccc3)CC2)CC1 [Example 289] please.
OUTPUT: > 6.30

INPUT: What about CN(C)C(=O)N1CCN(C(=O)c2cnc3ccc(F)cc3c2-c2ccc(C(C)(C)C#N)cc2)CC1 [Example 263] ?
OUTPUT: > 6.30

INPUT: Next record, please: COc1ccc2ncc(C(=O)N3CCN(C(=O)C4CC4)CC3)c(N3CCC(F)(F)CC3)c2c1 [Example 44]
OUTPUT: < 5.00

INPUT: Another: O=C(C1CC1)C1CCN(C(=O)c2cnc3cc(F)c(F)cc3c2N2CCC3(CC2)OCCO3)CC1 [Example 193]
OUTPUT: > 6.30
